- Assay summary: Enzyme kinetics of ART metabolism in human liver microsomes
- Type: in vitro ADME
- Study conditions: CLint,H, formation of ART-M, Vmax/Km, HLMs 0.5 mg/mL, 15 min
Measurement type: microsomal CLint (µL/min/mg)
Answers are plain numbers, in µL/min/mg.

get_value(item= C[C@@H]1CC[C@H]2[C@@H](C)C(=O)O[C@@H]3O[C@@]4(C)CC[C@@H]1[C@]32OO4 [ART, Artemisinin] , readout=microsomal CLint) returns 27.6

* * *

- Format: in vivo, human
- Study conditions: male, human, plasma, oral, CL/F, Day-1; dose/AUC0-t
Measurement type: CL/F (mL/min/kg)
One number for each entry, in mL/min/kg.

GET /value?item= C[C@@H]1CC[C@H]2[C@@H](C)C(=O)O[C@@H]3O[C@@]4(C)CC[C@@H]1[C@]32OO4 [ART, Artemisinin] &field=CL/F returns 183

These entries and their values trace back to paper PMC11539713.
